Target: T1, B-cat-Halo (beta-catenin HaloTag fusion expressed in HEK293 cells) (UniProt P35222 1-781)
T1 sequence (looked up): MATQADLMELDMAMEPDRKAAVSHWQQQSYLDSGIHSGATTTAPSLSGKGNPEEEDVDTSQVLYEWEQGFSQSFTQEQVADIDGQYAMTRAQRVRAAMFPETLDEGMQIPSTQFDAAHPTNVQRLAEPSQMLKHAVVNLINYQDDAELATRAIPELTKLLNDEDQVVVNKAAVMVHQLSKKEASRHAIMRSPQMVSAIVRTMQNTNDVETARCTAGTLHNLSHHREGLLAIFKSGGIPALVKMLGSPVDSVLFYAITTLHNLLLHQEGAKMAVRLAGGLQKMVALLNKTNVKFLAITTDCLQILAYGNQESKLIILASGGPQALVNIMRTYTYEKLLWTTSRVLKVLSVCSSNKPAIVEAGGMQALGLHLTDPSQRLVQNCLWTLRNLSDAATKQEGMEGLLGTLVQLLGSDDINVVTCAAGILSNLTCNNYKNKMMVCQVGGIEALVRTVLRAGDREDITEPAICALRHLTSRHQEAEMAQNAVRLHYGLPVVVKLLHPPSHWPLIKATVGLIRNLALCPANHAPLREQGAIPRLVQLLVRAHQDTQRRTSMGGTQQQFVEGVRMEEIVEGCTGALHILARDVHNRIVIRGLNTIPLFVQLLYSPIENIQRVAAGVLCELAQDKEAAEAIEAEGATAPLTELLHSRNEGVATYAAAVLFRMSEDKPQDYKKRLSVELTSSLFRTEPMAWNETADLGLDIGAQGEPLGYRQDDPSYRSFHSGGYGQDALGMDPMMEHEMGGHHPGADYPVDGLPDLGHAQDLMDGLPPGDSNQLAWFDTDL
Assay: cell-based or functional assay
Starred links: 1 amine or outer side, 2 acyl side, 3 side chain; linkers in the order of their positions; H or OH if unused. Positions of bridges follow the written chain, without caps; N, C: chain ends. Non-standard residues stand in square brackets, D forms with d. Primed or numbered codes have the meaning given here. PyrS2″ = (S)-3-amino-1-((pent-4-en-1-yloxy)carbonyl)pyrrolidine-3-carboxylic acid (stapling residue), C=CCCCOC(=O)N1CC[C@@](N[*:1])(C(=O)[*:2])C1; B5(4) = 2,2-bis(4-pentenyl)glycine = 2-amino-2-(pent-4-en-1-yl)hept-6-enoic acid (stitching residue), C=CCCCC(CCCC=C)(N[*:1])C(=O)[*:2]; Phe(3-COOH) = N[C@@H](Cc1cccc(C(=O)O)c1)C(=O)O; Phe(2-CF3) = N[C@@H](Cc1ccccc1C(F)(F)F)C(=O)O; dαMeGly(allyl) = C=CC[C@@](C)(N)C(=O)O; Bta = N[C@@H](Cc1csc2ccccc12)C(=O)O; αAllylPro = C=CC[C@@]1(C(=O)O)CCCN1; tBuAla = CC(C)(C)C[C@H](N)C(=O)O; 3Thi = N[C@@H](Cc1ccsc1)C(=O)O; R5 = C=CCCC[C@@](C)(N)C(=O)O; Nle = CCCC[C@H](N)C(=O)O; Aib = CC(C)(N)C(=O)O
Task for the reader: assign each of the following binders its reported NanoBRET Abs IC50.
Please respond with the number in µM and leave the unit unwritten.

Task: Fill blank: measured NanoBRET Abs IC50 of the binder Ac-[αAllylPro]D[tBuAla][B5(4)]D[Phe(3-COOH)][Aib]AF[Nle][PyrS2″][3Thi][Bta][(4Pippip)GlnR]-NH2 (staple 1-4, 4-11) [I-2555] is ____.
Output: 22.1

Task: Fill blank: measured NanoBRET Abs IC50 of the binder Ac-[dαMeGly(allyl)]D[tBuAla][B5(4)]D[Phe(3-COOH)]AAFL[PyrS2″][Phe(2-CF3)][Bta]Q-NH2 (staple 1-4, 4-11) [I-2563] is ____.
Output: 17

Task: Fill blank: measured NanoBRET Abs IC50 of the binder Ac-[αAllylPro]D[tBuAla][B5(4)]D[Phe(3-COOH)][Aib]AF[Nle][PyrS2″][3Thi][Bta][(4F3CPip)GlnR]-NH2 (staple 1-4, 4-11) [I-2557] is ____.
Output: 19.6

Task: Fill blank: measured NanoBRET Abs IC50 of the binder Ac-[R5]D[tBuAla][B5(4)]D[Phe(3-COOH)]AAFL[PyrS2″][Phe(2-CF3)][Bta]Q-NH2 (staple 1-4, 4-11; also: -CH=CH- in each staple reduced to -CH2-CH2-) [I-2571] is ____.
Output: 24
